Overview of reported Microsomal stability, % remaining across a group of compounds:
- procedureSummary: In vitro microsomal stability, human
- Assay type: in vitro ADME
- runConditions: Human Microsome, same batch, 10 min
# unit: % | format: bare number

Use these answered entries as a reference point.
INSERT INTO measurements (compound, measuredendpoint, quantitativeresult) VALUES
  ('CC(O)C(O)CCNC(=O)[C@@H]1N[C@H](CC(C)(C)C)[C@]2(C(=O)Nc3cc(Cl)c(F)cc32)[C@H]1c1cccc(Cl)c1 (some centres unmarked) [MI-519-31]', 'Microsomal stability, % remaining', 58.15),
  ('CC(C)(C)C[C@H]1N[C@@H](C(=O)NCC[C@H](O)CNC(C)(C)C)[C@H](c2cccc(Cl)c2)[C@@]12C(=O)Nc1cc(Cl)c(F)cc12 [MI-519-24]', 'Microsomal stability, % remaining', 53.92);

Enquiry: Given the entry CC(C)(C)C[C@H]1N[C@@H](C(=O)NCCC(C)(O)CO)[C@H](c2cccc(Cl)c2)[C@@]12C(=O)Nc1cc(Cl)c(F)cc12 (some centres unmarked) [MI-758] , report its measured Microsomal stability, % remaining.
Return: 89.21

Enquiry: Could you do the same for CC(C)(C)C[C@H]1N[C@@H](C(=O)NCC[C@H](O)CN2CCCC2)[C@H](c2cccc(Cl)c2)[C@@]12C(=O)Nc1cc(Cl)c(F)cc12 [MI-519-28] , please?
Return: 89.02

Enquiry: Could you do the same for CC(C)(C)C[C@H]1N[C@@H](C(=O)NCC[C@H](O)CN2CC[C@@H](O)C2)[C@H](c2cccc(Cl)c2)[C@@]12C(=O)Nc1cc(Cl)c(F)cc12 [MI-519-29] , please?
Return: 56.31

====

- measuredOn: recombinant human His-tagged MDM2 protein (residues 1-118) (Homo sapiens (Human), UniProt Q00987)
- Sequence (Q00987 1-118): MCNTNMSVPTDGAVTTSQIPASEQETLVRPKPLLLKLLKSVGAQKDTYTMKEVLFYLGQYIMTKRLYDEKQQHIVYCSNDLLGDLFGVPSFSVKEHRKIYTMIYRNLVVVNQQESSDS
- procedureSummary: Fluorescence-polarization MDM2 binding assay;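 also: fluorescence polarization read after three hours of incubation in potassium phosphate buffer containing bovine gamma globulin and Triton X-100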
- runConditions: Table 19A; FP binding assay; read-out: MDM2 IC50
pIC50: −log10 of the molar value.
measuredEndpoint: pIC50

Use these answered entries as a reference point.
INSERT INTO results (compound, measuredendpoint, result) VALUES
  ('CC(C)(C)C[C@H]1N[C@@H](C(=O)NCC[C@H](O)CN2CCCC2)[C@H](c2cccc(Cl)c2)[C@@]12C(=O)Nc1cc(Cl)c(F)cc12 [MI-519-28]', 'pIC50', '> 5.70'),
  ('CN1CCN(CCCNC(=O)[C@@H]2N[C@H](CC(C)(C)C)[C@]3(C(=O)Nc4cc(Cl)ccc43)[C@H]2c2cccc(Cl)c2F)CC1 [MI-519-46]', 'pIC50', '> 6.00');

Here is another compound to look at.
Enquiry: Given the entry CC(C)(C)C[C@H]1N[C@@H](C(=O)NC2CCC(NS(C)(=O)=O)CC2)[C@H](c2cccc(Cl)c2F)[C@@]12C(=O)Nc1cc(Cl)ccc12 (stereo partly drawn) [MI-772] , report its measured pIC50.
Return: > 6.00

====

- procedureSummary: In vitro microsomal stability, rat
- Assay type: in vitro ADME
- runConditions: Table 17, 4 min
measuredEndpoint: % of compound remaining when incubated in rat liver microsomes (%)
# unit: % | format: bare number

INSERT INTO measurements (compound, measurementunits, quantitativeresult) VALUES
  ('CC(C)(C)C[C@H]1N[C@@H](C(=O)NCCN2CCCC2)[C@H](c2cccc(Cl)c2F)[C@@]12C(=O)Nc1cc(Cl)c(F)cc12', '%', 96.8),
  ('CNC(=O)[C@@H]1N[C@H](CC(C)(C)C)[C@]2(C(=O)Nc3cc(Cl)c(F)cc32)[C@H]1c1cccc(Cl)c1', '%', 84.2),
  ('CC(C)(C)C[C@H]1N[C@@H](C(N)=O)[C@H](c2cccc(Cl)c2)[C@@]12C(=O)Nc1cc(Cl)c(F)cc12', '%', 84.2),
  ('CC(C)(C)C[C@H]1N[C@@H](C(=O)NCCCN2CCCCC2)[C@H](c2cccc(Cl)c2F)[C@@]12C(=O)Nc1cc(Cl)ccc12', '%', 85.6),
  ('CC(C)(C)C[C@H]1N[C@@H](C(=O)NCCCN2CCN(C3CC3)CC2)[C@H](c2cccc(Cl)c2F)[C@@]12C(=O)Nc1cc(Cl)ccc12 [MI-519-47]', '%', 80.1);

Enquiry: Given the entry CC(C)(C)C[C@H]1N[C@@H](C(=O)NCCN2CCNCC2)[C@H](c2cccc(Cl)c2)[C@@]12C(=O)Nc1cc(Cl)c(F)cc12 , report its measured % of compound remaining when incubated in rat liver microsomes.
Return: 79.1

Enquiry: Could you do the same for CC(C)(C)C[C@H]1N[C@@H](C(=O)NCCCN2CCN(C3CC3)CC2)[C@H](c2cccc(Cl)c2F)[C@@]12C(=O)Nc1cc(Cl)ccc12 [MI-519-48] , please?
Return: 79.8

Enquiry: Could you do the same for CC(C)(C)C[C@H]1N[C@@H](C(=O)NCCCN2CCCC2)[C@H](c2cccc(Cl)c2F)[C@@]12C(=O)Nc1cc(Cl)ccc12 , please?
Return: 92.3

Enquiry: Could you do the same for CC(C)(C)C[C@H]1N[C@@H](C(=O)NCCCN2CCCC2)[C@H](c2cccc(Cl)c2F)[C@@]12C(=O)Nc1cc(Cl)c(F)cc12 , please?
Return: 87.8

Enquiry: Could you do the same for CN1CCN(CCCNC(=O)[C@@H]2N[C@H](CC(C)(C)C)[C@]3(C(=O)Nc4cc(Cl)c(F)cc43)[C@H]2c2cccc(Cl)c2)CC1 , please?
Return: 83.1
